Below: a set of entries, each annotated with reported IC50.
- study.system: KRas G12D (Homo sapiens, UniProt P01116, G12D)
- Sequence (P01116 1-169 isoform P01116-2 G12D): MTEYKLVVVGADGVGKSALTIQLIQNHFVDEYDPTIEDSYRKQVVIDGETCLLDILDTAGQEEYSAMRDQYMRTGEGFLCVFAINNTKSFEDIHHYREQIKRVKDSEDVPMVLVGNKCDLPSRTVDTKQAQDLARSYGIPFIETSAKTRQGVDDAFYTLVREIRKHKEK
- protocol.notes: KRas G12D Binding Assay (TR-FRET displacement of labeled tracer)
- measurement.parameters: TR-FRET displacement of Cy5 labelled tracer, biotinylated GDP-loaded KRAS G12D (aa 1:169), 60 minute incubation at 22° C.
- Method: This Example illustrates that exemplary compounds of the present invention bind to KRas G12D and are capable of displacing a labeled tracer ligand occupying the KRas G12D binding site. The ability of a compound to bind to KRAS G12D was measured using a TR-FRET displacement assay. […] The POC values were fit to a 4-parameter logistic curve and the IC50 value was determined as the concentration where the curve crosses 50 POC.
# value in nM; strip the unit string

molecule="CCc1cccc2cccc(N3CCc4c(nc(OC[C@]56CCCN5[C@@H](COC(=O)NC)CC6)nc4N4C[C@H]5CC[C@@H](C4)N5)C3)c12 [Example 18]" readout_type=IC50 uom=nM reported_measurement=2

State its IC50: CN1CCC[C@H]1COc1nc2c(c(N3C[C@H]4CC[C@@H](C3)N4)n1)CC(=O)N(Cc1ccccc1)C2 [Example 53]
5260

In one line, give reported IC50 of the entry CCc1cccc2cccc(N3CCc4c(nc(OCC56CCCN5C(COC(=O)N5CC[C@H](O)C5)CC6)nc4N4C[C@H]5CC[C@@H](C4)N5)C3)c12 (some centres unmarked) [Example 105] .
2.3

Determine its reported IC50: Cc1cccc2cccc(N3CCc4c(nc(OCC56CCCN5C[C@H](F)C6)nc4N4CC5CCC(C4)N5)C3)c12 (mixture of isomers) [Example 50]
7.1

Quick one: give measured IC50 for FC(F)(F)c1c(Cl)cccc1N1CCc2c(nc(OCC34CCCN3CCC4)nc2N2C[C@H]3CC[C@@H](C2)N3)C1 [Example 63]
5.1

Output measured IC50 for this item: F[C@H]1CN2CCCC2(COc2nc3c(c(N4CC5CCC(C4)N5)n2)CCN(c2cccc4cccc(C5CC5)c24)C3)C1 (mixture of isomers) [Example 11]
19.8
